# assayTarget: human MDM2 protein (amino acids 2-188) (Homo sapiens (Human))
# Sequence (Q00987 2-188): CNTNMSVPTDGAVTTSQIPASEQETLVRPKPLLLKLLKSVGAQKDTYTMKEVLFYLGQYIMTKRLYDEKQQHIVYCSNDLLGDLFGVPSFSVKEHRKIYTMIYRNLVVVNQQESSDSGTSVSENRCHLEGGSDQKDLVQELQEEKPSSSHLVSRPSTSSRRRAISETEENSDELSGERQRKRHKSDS
# measurementProtocol: TR-FRET assay, p53-MDM2 Assay 2 (modified)
# Assay type: binding
# testContext: TR-FRET; 0.1 nM MDM2, 0.1 nM Europium labeled streptavidin, Tecan genios Pro reader; read-out: IC50 p53-MDM2 Assay 2
outcomeMeasure: log10 IC50 (log10 of the value in nM)
The base-10 logarithm of IC50, taken with IC50 in nM, is what appears here.

Here are 3 compounds together with their reported answers.
{"compound": "CNC(=O)c1ccc(OC)c(-c2cc3c(n2C(C)C)C(c2ccc(Cl)cc2)N([C@H]2CC[C@H](O)CC2)C3=O)c1 (stereo partly shown) [Example 64]", "log10 IC50": 0.00}
{"compound": "CNC(=O)Cc1cnc(OC)c(-c2cc3c(n2C(C)C)C(c2ccc(C#N)cc2)N(c2cccc(Cl)c2F)C3=O)c1 (stereo not shown) [Example 85]", "log10 IC50": 0.50}
{"compound": "COc1nc(N(C)C)ncc1-c1cc2c(n1C(C)C)C(c1ccc(Cl)cn1)N(c1cccc(Cl)c1F)C2=O (stereo not shown) [Example 234]", "log10 IC50": -0.18}

compound COc1ccc(CC(=O)O)cc1-c1cc2c(n1C(C)C)C(c1ccc(Cl)cc1)N(c1cc(Cl)c(=O)n(C)c1)C2=O (stereo not shown) [Example 118] , log10 IC50 observed: -0.51

Reported log10 IC50 of COc1ncc(-c2cc3c(n2C(C)C)C(c2ccc(Cl)c(F)c2)N(c2cc(Cl)c(=O)n(C)c2)C3=O)c(OC)n1 (stereo not shown) [Example 192] : -0.89

# log10 IC50 (compound: COc1ccc(C(=O)N(C)C)cc1-c1cc2c(n1C(C)C)[C@@H](c1ccc(Cl)cc1)N(c1cc(Cl)ccc1C)C2=O [Example 21] ) is 2.79

// recorded log10 IC50 for COc1nc(N)ncc1-c1cc2c(n1C(C)C)C(c1ccc(Cl)cc1)N(c1cc(Cl)c(=O)n(C)c1)C2=O (stereo not shown) [Example 51] : -0.34

###

# assayTarget: human MDM2 protein (amino acids 2-188) (Homo sapiens (Human))
# measurementProtocol: TR-FRET assay, p53-MDM2 Assay 1
# Type: binding
# testContext: 1.25 nM MDM2-biotinylated, 10 nM Cy5-p53 peptide
This listing pairs compounds with measured IC50.
Give the value, in units of nM, as a plain number.

Worked cases, IC50 given:
{"compound": "COc1nc(N)ncc1-c1cc2c(n1C(C)C)C(c1ccc(Cl)cc1)N(C1CCOCC1)C2=O (stereo not shown) [Example 78]", "IC50, nM": 8.5}
{"compound": "CNC(=O)c1ccc(OC)c(-c2cc3c(n2C(C)C)[C@H](c2ccc(Cl)cc2C)N(c2cccc(Cl)c2F)C3=O)c1 [Example 7]", "IC50, nM": 0.6}
{"compound": "COc1ccccc1-c1cc2c(n1C(C)C)C(c1ccc(Cl)cc1C)N(c1cccc(Cl)c1F)C2=O (stereo not shown) [Example 1]", "IC50, nM": 9.5}
{"compound": "COc1nc(N)ncc1-c1cc2c(n1C(C)C)C(c1ccc(Cl)cc1)N([C@H]1CC[C@H](O)CC1)C2=O (stereo partly shown) [Example 68]", "IC50, nM": 12.6}
{"compound": "COc1ccccc1-c1cc2c(n1C(C)C)C(c1ccc(Cl)cc1)N(c1cc(Cl)ccc1C)C2=O (stereo not shown) [Example 9]", "IC50, nM": 0.6}
{"compound": "Cc1cc(N2C(=O)c3cc(-c4ccn(C)c(=O)c4)n(C4CC4)c3C2c2ccc(Cl)cc2)cn(C)c1=O (stereo not shown) [Example 242]", "IC50, nM": 2040}
{"compound": "COc1ccc(F)cc1-c1cc2c(n1C(C)C)C(c1ccc(Cl)cc1C)N(c1cccc(Cl)c1F)C2=O (stereo not shown) [Example 3]", "IC50, nM": 6}
{"compound": "CNC(=O)c1ccc(OC)c(-c2cc3c(n2C(C)C)[C@H](c2ccc(Cl)cc2C)N(c2cc(Cl)ccc2C)C3=O)c1 [Example 32]", "IC50, nM": 0.5}

The recorded IC50 with human MDM2 protein (amino acids 2-188) (Homo sapiens (Human)) for COc1ncc(-c2cc3c(n2C2CC2)C(c2ccc(Cl)cc2)N(c2cc(C)c(=O)n(C)c2)C3=O)cn1 (stereo not shown) [Example 241] was 3920

Record for CNC(=O)c1ccc(OC)c(-c2cc3c(n2C(C)C)C(c2ccc(Cl)cc2C)N([C@H]2CC[C@H](O)CC2)C3=O)c1 (stereo partly shown) [Example 102] under target or system human MDM2 protein (amino acids 2-188) (Homo sapiens (Human)): IC50 reported as 12.7

// returns IC50 for COc1ncc(-c2cc3c(n2C2CC2)C(c2ccc(Cl)cc2)N(c2cc(C)c(=O)n(C)c2)C3=O)c(OC)n1 (stereo not shown) [Example 240] with human MDM2 protein (amino acids 2-188) (Homo sapiens (Human)); value = 33.3

Field IC50 (human MDM2 protein (amino acids 2-188) (Homo sapiens (Human))), entry COc1ncc(-c2cc3c(n2C(C)C)C(c2ccc(Cl)cc2C)N(C2CCOCC2)C3=O)c(OC)n1 (stereo not shown) [Example 105] : 10.2

Bench note, human MDM2 protein (amino acids 2-188) (Homo sapiens (Human)): entry COc1nc(N)ncc1-c1cc2c(n1C(C)C)C(c1ccc(Cl)cc1)N(C1CCC(=O)N(C)C1)C2=O (stereo not shown) [Example 108] , its IC50 = 3.3

Summary: COc1ccc(C(=O)NOCCO)cc1-c1cc2c(n1C(C)C)C(c1ccc(Cl)cc1)N(c1cc(Cl)ccc1C)C2=O (stereo not shown) [Example 37] , human MDM2 protein (amino acids 2-188) (Homo sapiens (Human)), IC50 = 1.1

Form: item COc1ccc(C(=O)O)cc1-c1cc2c(n1C(C)C)C(c1ccc(Cl)cc1)N([C@H]1CC[C@H](O)CC1)C2=O (stereo partly shown) [Example 65] ; test system human MDM2 protein (amino acids 2-188) (Homo sapiens (Human)); IC50: 12.3

The observed IC50 for CNC(=O)c1ccc(OC)c(-c2cc3c(n2C(C)C)C(c2ccc(Cl)cc2)N(c2cc(Cl)ccc2C)C3=O)c1 (stereo not shown) [Example 10] when tested with human MDM2 protein (amino acids 2-188) (Homo sapiens (Human)) stands at 0.9

# credit: patent US9365576B2
